Quick reference: IC50 of the listed items.
Biological target: Human complement C1s enzyme (Homo sapiens, UniProt P09871)
Construct: purified from human serum, Complement Technology, Inc; purchased Complement Technology, Inc; host or cells: human serum (plasma-derived natural protein)
Sequence (P09871 438-688 limits assumed): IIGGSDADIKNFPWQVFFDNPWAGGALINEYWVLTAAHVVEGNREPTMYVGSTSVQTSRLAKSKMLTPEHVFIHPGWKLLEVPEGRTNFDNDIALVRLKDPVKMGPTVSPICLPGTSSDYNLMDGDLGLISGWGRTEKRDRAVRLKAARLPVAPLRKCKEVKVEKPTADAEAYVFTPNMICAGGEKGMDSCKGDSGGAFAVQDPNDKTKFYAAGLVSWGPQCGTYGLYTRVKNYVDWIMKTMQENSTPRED
Sequence (P09871 16-437 partner limits assumed): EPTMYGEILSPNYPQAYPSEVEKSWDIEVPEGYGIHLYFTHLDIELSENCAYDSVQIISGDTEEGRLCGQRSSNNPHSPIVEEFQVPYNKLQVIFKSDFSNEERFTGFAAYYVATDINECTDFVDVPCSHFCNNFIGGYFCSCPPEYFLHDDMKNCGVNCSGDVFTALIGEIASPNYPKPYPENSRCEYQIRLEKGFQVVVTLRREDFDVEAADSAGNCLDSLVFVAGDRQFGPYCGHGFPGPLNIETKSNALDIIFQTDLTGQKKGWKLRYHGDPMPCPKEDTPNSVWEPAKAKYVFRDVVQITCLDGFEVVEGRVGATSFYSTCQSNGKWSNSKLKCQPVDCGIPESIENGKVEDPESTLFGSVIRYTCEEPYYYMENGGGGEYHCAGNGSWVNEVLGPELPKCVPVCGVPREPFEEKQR
Assay: Human C1s Enzyme Assay
Type: biochemical
Conditions: Table 1; C1s purified from human serum, 1.16 nM; substrate Z-L-Lys-SBzl; read-out: C1s Protease Activity

Past entries and their recorded results:
N=C(N)c1cccc(CNC(=O)[C@@H]2CC3(CN2C(=O)CNC(=O)c2ccc(Oc4ccccc4)cc2)OCCO3)c1 ... > 1 µM
N=C(N)c1csc(CNC(=O)[C@@H]2CSCN2C(=O)CNC(=O)c2ccc(Oc3ccccc3)cc2)c1 ... < 0.1 µM
N=C(N)CCCNC(=O)[C@@H]1CC2(CN1C(=O)CNC(=O)c1ccc(Oc3ccccc3)cc1)OCCO2 ... > 1 µM

Next molecule, please.
Input: Assign IC50 to the following record: CC(=O)Nc1ccc(CNC(=O)[C@@H]2CC3(CN2C(=O)CNC(=O)c2ccc(Oc4ccccc4)cc2)OCCO3)cc1
Output: > 1 µM

---

Target: Human complement C1s enzyme (Homo sapiens, UniProt P09871)
Construct: purified from human serum, Complement Technology, Inc; purchased Complement Technology, Inc; host or cells: human serum (plasma-derived natural protein)
Test: Human C1s Enzyme Assay
Type: biochemical
Settings: Table 1; C1s purified from human serum, 1.16 nM; substrate Z-L-Lys-SBzl; read-out: C1s Protease Activity
Quick reference: IC50 of the listed items.

Past entries and their recorded results:
N=C(N)c1csc(CNC(=O)[C@@H]2CC3(CCCCC3)CN2C(=O)CNC(=O)c2ccc(Oc3ccccc3)cc2)c1 [Compound 13] ... > 1000 nM
N=C(N)c1csc(CNC(=O)[C@@H]2CN2C(=O)CNC(=O)c2ccc(Oc3ccccc3)cc2)c1 [Compound 14] ... 100 to 1000 nM

Input: Report its IC50 with Human complement C1s enzyme (Homo sapiens, UniProt P09871) as the test system: CO[C@H]1C[C@H](C(=O)CNC(=O)c2ccc(Oc3ccccc3)cc2)[C@H](C(=O)NCc2cc(C(=N)N)cs2)C1 [Compound 34]
Output: > 1000 nM

Input: Report its IC50 with Human complement C1s enzyme (Homo sapiens, UniProt P09871) as the test system: N=C(N)c1csc(CNC(=O)[C@@H]2CC3(CCCC3)CN2C(=O)CNC(=O)c2ccc(Oc3ccccc3)cc2)c1 [Compound 12]
Output: < 100 nM

Input: Report its IC50 with Human complement C1s enzyme (Homo sapiens, UniProt P09871) as the test system: N=C(N)CCCCNC(=O)[C@@H]1CC2(CN1C(=O)CNC(=O)c1ccc(Oc3ccccc3)cc1)OCCO2 [Compound 17]
Output: > 1000 nM

Input: Report its IC50 with Human complement C1s enzyme (Homo sapiens, UniProt P09871) as the test system: C[C@@]1(C(=O)NCc2cc(C(=N)N)cs2)CCCN1C(=O)CNC(=O)c1ccc(Oc2ccccc2)cc1 [Compound 3]
Output: < 100 nM

Input: Report its IC50 with Human complement C1s enzyme (Homo sapiens, UniProt P09871) as the test system: N=C(N)c1csc(CNC(=O)C2CC3(CC3)CN2C(=O)CNC(=O)c2ccc(Oc3ccccc3)cc2)c1 (centres unmarked) [Compound 10]
Output: 100 to 1000 nM

---

Biological target: Human complement C1s enzyme (Homo sapiens, UniProt P09871)
Construct: purified from human serum, Complement Technology, Inc; purchased Complement Technology, Inc; host or cells: human serum (plasma-derived natural protein)
Experiment: Human C1s Enzyme Assay
Format: biochemical
Conditions: Table 2; C1s purified from human serum, 1.16 nM; substrate Z-L-Lys-SBzl; read-out: C1s Protease Activity
pIC50: −log10 of the molar value.
Measured parameter: pIC50

Past entries and their recorded results:
CN(C)CCCCCC(=O)NCC(=O)N1CCC[C@H]1C(=O)NCc1cc(C(=N)N)cs1 ... < 6.00
N=C(N)c1csc(CNC(=O)[C@@H]2CCCN2C(=O)CCCc2ccc(Oc3ccccc3)cc2)c1 ... > 7.00
Cc1cc(C(=O)NCC(=O)N2CC3(C[C@H]2C(=O)NCc2nc(C(=N)N)co2)OCCO3)ccc1Oc1ccccc1 ... > 7.00
CCCCCc1ccc(C(=O)NCC(=O)N2CCC[C@H]2C(=O)NCc2cc(C(=N)N)cs2)cc1 ... > 7.00
CC(C)(c1ccccc1)c1ccc(C(=O)NCC(=O)N2CCC[C@H]2C(=O)NCc2cc(C(=N)N)cs2)cc1 ... > 7.00

Next molecule, please.
Input: Assign pIC50 to the following record: CCCCCCC(=O)NCC(=O)N1CCC[C@H]1C(=O)NCc1cc(C(=N)N)cs1
Output: 6.00 to 7.00

---

Biological target: Human complement C1s enzyme (Homo sapiens, UniProt P09871)
Construct: purified from human serum, Complement Technology, Inc; purchased Complement Technology, Inc; host or cells: human serum (plasma-derived natural protein)
Experiment: Human C1s Enzyme Assay
Assay type: biochemical
Conditions: Table 1; C1s purified from human serum, 1.16 nM; substrate Z-L-Lys-SBzl; read-out: C1s Protease Activity
pIC50: −log10 of the molar value.
Quick reference: pIC50 of the listed items.

Past entries and their recorded results:
CC(=O)Nc1cccc(CNC(=O)[C@@H]2CC3(CN2C(=O)CNC(=O)c2ccc(Oc4ccccc4)cc2)OCCO3)c1 ... < 6.00
N=C(N)CCCNC(=O)[C@@H]1CCCN1C(=O)CNC(=O)c1ccc(Oc2ccccc2)cc1 ... < 6.00

Input: Assign pIC50 to the following record: Cc1ccc(Oc2ccc(C(=O)NCC(=O)N3CC4(C[C@H]3C(=O)NCc3cc(C(=N)N)cs3)OCCO4)cc2)cc1
Output: > 7.00

Input: Assign pIC50 to the following record: N=C(N)c1csc(CNC(=O)[C@@H]2CC(=O)CN2C(=O)CNC(=O)c2ccc(Oc3ccccc3)cc2)c1
Output: > 7.00

Input: Assign pIC50 to the following record: NCCCCNC(=O)[C@@H]1CC2(CN1C(=O)CNC(=O)c1ccc(Oc3ccccc3)cc1)OCCO2
Output: < 6.00

Input: Assign pIC50 to the following record: N=C(N)c1ccc(CNC(=O)[C@@H]2CC3(CN2C(=O)CNC(=O)c2ccc(Oc4ccccc4)cc2)OCCO3)cc1
Output: > 7.00

Input: Assign pIC50 to the following record: Nc1ccc(CCNC(=O)[C@@H]2CC3(CN2C(=O)CNC(=O)c2ccc(Oc4ccccc4)cc2)OCCO3)cc1
Output: < 6.00

Input: Assign pIC50 to the following record: C[C@H]1C[C@@H](C(=O)NCc2cc(C(=N)N)cs2)N(C(=O)CNC(=O)c2ccc(Oc3ccccc3)cc2)C1
Output: > 7.00

Input: Assign pIC50 to the following record: N=C(N)c1csc(CNC(=O)C2CC3(CCC3)CN2C(=O)CNC(=O)c2ccc(Oc3ccccc3)cc2)c1 (stereo not shown)
Output: > 7.00

Input: Assign pIC50 to the following record: N=C(N)c1csc(CNC(=O)[C@H]2CCCN2C(=O)CNC(=O)c2ccc(Oc3ccccc3)cc2)c1
Output: < 6.00
